These data points were gathered from PubChem BioAssay (NCI).

- System: MDA-MB-435
- Assay info: NCI tumour cell line growth inhibition, 48 h
Reported TGI by item:
Express the result in µM but write the number alone.

Past entries and their recorded results:
Compound	TGI, µM
C=C(C)[C@H]1C=C[C@@H](OC(C)=O)[C@@]2(COC(C)=O)[C@H](OC(=O)CCC)[C@H]3[C@@H](OC(C)=O)[C@@H](C)C[C@]3(O)C(=O)[C@@](C)(OC(C)=O)[C@H]12	44.2
C=CCOC1=C(OC(C)=O)C(C2COC(C)(C)O2)OC1=O (stereo not given)	46.2
CCCCCCOc1ccc(/C=N/Nc2cc(C)nc3ccc(Br)cc23)cc1	3.16
O=[N+]([O-])C(=C(\Cl)NCCO)/C(Cl)=C(/Cl)Br	2.67
Nc1[nH]nc2c1Cc1c(n(Cc3ccc(Cl)cc3)c3ccccc13)C(=O)N2	16.5
COc1ccc(C2=Nn3c(C)nnc3S/C2=C\c2ccc(-c3ccc([N+](=O)[O-])cc3)o2)cc1	17.9
CCN(CC)C(=O)N1CN(c2ccccc2)C2(CCN(CCCC3(c4ccc(F)cc4)OCCO3)CC2)C1=O	38.9

# ---- query compound ----
*Q* Give TGI for "Nc1nc(N)c(N=Nc2ccc([As](=O)(O)O)c(O)c2)c(N)n1"
*A* 6.37
